tgt: TRPV4 (Homo sapiens)
Construct: full-length wild type, transiently transfected HEK293, outside-out patches
protocol-summary: outside-out patch clamp of HEK293 cells expressing hTRPV4, inhibition of GSK-activated currents, dose-response (apparent KD from Hill fit)
Type: cell-based
recorded-metric: pKd
For clarity, pKd is expressed as the negative log10 of concentration in mol/L.

Prompt: # query: pKd | item Cc1ccc(OC[C@H](O)[C@@H](C)NC(C)C)c2c1CCC2 (relative stereo) | system: TRPV4 (Homo sapiens)
Response: 5.41

###

tgt: TRPV4 (Homo sapiens, UniProt Q9HBA0)
Construct: full-length wild type, transiently transfected HEK293, outside-out patches
Sequence (Q9HBA0 whole entry): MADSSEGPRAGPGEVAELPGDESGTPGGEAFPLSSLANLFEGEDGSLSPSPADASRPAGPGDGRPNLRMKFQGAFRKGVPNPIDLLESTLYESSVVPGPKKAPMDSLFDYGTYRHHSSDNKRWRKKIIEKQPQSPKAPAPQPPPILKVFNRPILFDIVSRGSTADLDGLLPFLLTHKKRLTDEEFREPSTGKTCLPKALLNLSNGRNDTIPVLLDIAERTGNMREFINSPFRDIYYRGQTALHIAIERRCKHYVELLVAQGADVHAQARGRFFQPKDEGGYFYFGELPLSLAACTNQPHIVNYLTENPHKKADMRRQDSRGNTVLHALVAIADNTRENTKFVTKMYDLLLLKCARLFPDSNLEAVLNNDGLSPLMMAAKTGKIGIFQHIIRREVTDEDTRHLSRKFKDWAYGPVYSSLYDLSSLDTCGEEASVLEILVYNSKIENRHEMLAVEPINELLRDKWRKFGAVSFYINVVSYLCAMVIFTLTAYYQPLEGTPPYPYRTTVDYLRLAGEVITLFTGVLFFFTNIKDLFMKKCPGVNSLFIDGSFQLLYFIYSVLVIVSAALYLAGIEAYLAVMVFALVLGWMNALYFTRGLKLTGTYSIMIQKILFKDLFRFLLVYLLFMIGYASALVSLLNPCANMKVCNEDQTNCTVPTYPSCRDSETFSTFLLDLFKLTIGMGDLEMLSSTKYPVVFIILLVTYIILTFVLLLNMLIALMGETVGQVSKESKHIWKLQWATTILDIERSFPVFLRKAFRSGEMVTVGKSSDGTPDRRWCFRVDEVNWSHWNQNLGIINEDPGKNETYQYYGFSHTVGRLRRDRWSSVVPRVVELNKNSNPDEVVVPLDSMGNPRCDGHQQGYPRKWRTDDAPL
protocol-summary: outside-out patch clamp of HEK293 cells expressing hTRPV4, activation dose-response (KD from Hill fit)
Assay type: cell-based
recorded-metric: Kd (nM)
Give a bare numeral; the unit nM is implied.

Prompt: Data request, read-out Kd, for CC(C)C[C@H](NC(=O)c1cc2ccccc2s1)C(=O)N1CCN(C(=O)[C@H](CO)NS(=O)(=O)c2ccc(Cl)cc2Cl)CC1 [GSK, GSK1016790A]
Response: 101
